biological target: long form of human GPR120 (Homo sapiens, UniProt Q5NUL3); assay: Human GPR120 DiscoveRx PathHunter Beta-Arrestin assay, Procedure β-arrestin A; conditions: PathHunter CHO-K1 GPR120 β-Arrestin cell line, 3000 cells per well, read-out: hGPR120 β-arrestin A EC50
Sequence (Q5NUL3 1-377 isoform Q5NUL3-1): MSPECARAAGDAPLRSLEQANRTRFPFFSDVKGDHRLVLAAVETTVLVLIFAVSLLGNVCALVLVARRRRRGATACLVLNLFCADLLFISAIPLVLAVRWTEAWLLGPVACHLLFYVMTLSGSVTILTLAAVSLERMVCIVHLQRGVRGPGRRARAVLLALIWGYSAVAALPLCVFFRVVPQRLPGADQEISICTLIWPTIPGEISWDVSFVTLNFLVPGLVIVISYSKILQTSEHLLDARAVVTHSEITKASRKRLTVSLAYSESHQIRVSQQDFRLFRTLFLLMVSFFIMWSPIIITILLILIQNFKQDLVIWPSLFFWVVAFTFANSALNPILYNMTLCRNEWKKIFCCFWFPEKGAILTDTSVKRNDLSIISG
Sequence (P32121 whole entry partner): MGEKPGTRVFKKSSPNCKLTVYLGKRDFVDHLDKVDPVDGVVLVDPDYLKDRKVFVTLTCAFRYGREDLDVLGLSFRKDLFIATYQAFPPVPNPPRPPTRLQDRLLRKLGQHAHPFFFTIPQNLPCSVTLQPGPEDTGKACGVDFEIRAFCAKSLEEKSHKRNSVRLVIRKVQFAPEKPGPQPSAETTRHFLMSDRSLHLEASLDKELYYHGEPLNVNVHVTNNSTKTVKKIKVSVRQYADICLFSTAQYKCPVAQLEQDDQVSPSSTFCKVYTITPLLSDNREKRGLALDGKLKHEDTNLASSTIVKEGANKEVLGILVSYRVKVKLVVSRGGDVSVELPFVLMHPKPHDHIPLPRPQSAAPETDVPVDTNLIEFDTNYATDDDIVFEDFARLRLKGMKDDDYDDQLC
Measure name: EC50 (nM)

Please review the following examples before continuing.
[[record]]
compound = "CCc1ccc(-c2nsc(C(F)(F)F)c2COc2c(F)cc(CCC(=O)O)c(F)c2F)cc1 [Cpd 117]"
result_number = 254

[[record]]
compound = "Cc1c(CCC(=O)O)ccc(OCc2c(Cl)nsc2-c2cccc(Cl)c2)c1C [Cpd 156]"
result_number = 368


P. COc1ccc(-c2csc(C(F)(F)F)c2COc2c(F)cc(CCC(=O)O)cc2F)cn1 [Cpd 42]
Q. O=C(O)CCc1ccc(OCc2c(Cl)nsc2-c2ccc(Cl)cc2)c(F)c1F [Cpd 72]
# return whichever of P and Q has the smaller EC50 Reply briefly: the label of your chosen item. Q

1. O=C(O)CCc1ccc(OCc2csnc2-c2ccc(Cl)cc2)c(F)c1F [Cpd 189]
2. O=C(O)CCc1cc(F)c(OCc2c(-c3ncc(Cl)cc3F)nsc2C(F)(F)F)c(F)c1 [Cpd 153]
Sorting ascending by EC50, which comes first: 1 or 2 ? Use the label to indicate which entry you chose. 2

I. CCc1ccc(-c2snc(Cl)c2COc2c(F)cc(CCCO)cc2F)cc1 [Cpd 183]
II. CCc1ccc(-c2ccsc2COc2c(F)cc(CCCO)cc2F)cc1 [Cpd 20]
III. OCCCc1cc(F)c(OCc2c(-c3ccc(Cl)cc3)nsc2C(F)(F)F)c(F)c1 [Cpd 100]
IV. CCc1ccc(-c2cc(C)sc2COc2ccc(CCC(=O)O)c(C)c2C)cc1 [Cpd 13]
Order the items by recorded EC50; the first position goes to the largest value. Order the labels as requested and list them. IV, II, III, I
(IV: 498 nM, II: 168 nM, III: 97 nM, I: 52 nM)

I. CCc1cc(CCC(=O)O)ccc1OCc1c(-c2ccc(Cl)cc2)nsc1C(F)(F)F [Cpd 162]
II. CCc1ccc(-c2snc(Cl)c2COc2ccc(CCC(=O)O)c(F)c2F)cc1 [Cpd 66]
III. Cc1c(CCC(=O)O)ccc(OCc2c(-c3ccc(F)cc3)csc2C(F)(F)F)c1C [Cpd 58]
IV. Cc1c(CCC(=O)O)ccc(OCc2c(Cl)nsc2-c2ccc(F)cc2)c1C [Cpd 154]
V. Cc1c(CCC(=O)O)ccc(OCc2csnc2-c2ccc(Cl)cc2)c1C [Cpd 166]
// smallest EC50 at index 0, largest at the end Output spec: a listing of the labels in the requested order. II, I, IV, III, V

====

biological target: long form of human GPR120 (Homo sapiens, UniProt Q5NUL3); test: Human GPR120 DiscoveRx PathHunter Beta-Arrestin assay, Procedure β-arrestin A; settings: PathHunter CHO-K1 GPR120 β-Arrestin cell line, 3000 cells per well, read-out: hGPR120 β-arrestin A EC50
Measure name: EC50 (nM)

[[record]]
compound = "CCc1ccc(-c2nsc(C(F)(F)F)c2COc2c(F)cc(CCC(=O)O)cc2F)cc1"
target_of_assay = "long form of human GPR120 (Homo sapiens, UniProt Q5NUL3)"
result_number = 98

[[record]]
compound = "CCc1ccc(-c2snc(Cl)c2COc2ccc(CCCO)c(F)c2F)cc1"
target_of_assay = "long form of human GPR120 (Homo sapiens, UniProt Q5NUL3)"
result_number = 54

[[record]]
compound = "OCCCc1cc(F)c(OCc2sc(Cl)cc2-c2ccc(Cl)cc2)c(F)c1"
target_of_assay = "long form of human GPR120 (Homo sapiens, UniProt Q5NUL3)"
result_number = 108

[[record]]
compound = "OCCCc1cc(F)c(OCc2c(-c3ccc(Cl)cc3)csc2C(F)(F)F)c(F)c1F"
target_of_assay = "long form of human GPR120 (Homo sapiens, UniProt Q5NUL3)"
result_number = 108


a. O=C(O)CCc1ccc(OCc2csnc2-c2ccc(Br)cc2)c(F)c1F
b. O=C(O)CCc1cc(F)c(OCc2c(C3=CCCC3)csc2C(F)(F)F)c(F)c1
c. COc1ccc(-c2csc(C(F)(F)F)c2COc2c(F)cc(CCC(=O)O)cc2F)cc1
d. Cc1ccc(-c2nsc(C(F)(F)F)c2COc2c(F)cc(CCC(=O)O)cc2F)cc1
Put the entries in order of EC50, starting with the largest number. Form entry: ranked labels (order as requested). a, b, c, d

====

target: Human GPR120 short form (Homo sapiens); construct: expressed in transfected cells; assay: Human GPR120 calcium flux assay (FLIPR), Procedure Calcium A; format: cell-based; conditions: HEK-293 cells expressing human GPR120 short form, 2500 cells/well; read-out: GPR120 Ca2+ Assay A EC50
pEC50: −log10 of the molar value.
Measure name: pEC50

[[record]]
structure_as_smiles = "Cc1c(CCC(=O)O)cc(F)c(OCc2c(-c3ccc(Cl)cc3)nsc2C(F)(F)F)c1F"
result_number = 7.00


P. COc1ccc(-c2snc(Cl)c2COc2c(F)cc(CCC(=O)O)cc2F)cc1
Q. Cc1c(CCC(=O)O)ccc(OCc2c(-c3ccc(C(C)(F)F)cc3)nsc2C(F)(F)F)c1C
// compare measured pEC50, left P , right Q , return larger Indicate which entry you chose by stating its label. P
(P: 7.14, Q: 6.58)

A. CCc1ccc(-c2ccsc2COc2c(F)cc(CCCO)cc2F)cc1
B. Cc1ccc(-c2snc(C(F)(F)F)c2COc2ccc(CCC(=O)O)c(C)c2C)c(C)c1
Consider A and B . Which of these has its pEC50 at a higher number? Selection: enter the item's label. B
(B: 6.52, A: 6.18)

====

target: short form of the GPR120 receptor (GPR120S) (Homo sapiens); test: Human GPR120 DiscoveRx PathHunter Beta-Arrestin assay, Procedure β-arrestin B; conditions: PathHunter CHO-K1 GPR120S β-Arrestin cell line, 5000 cells/well, read-out: hGPR120 β-arrestin B EC50
Measure name: EC50 (nM)

[[record]]
molecule = "Cc1c(CCC(=O)O)ccc(OCc2c(-c3cnc(Cl)s3)nsc2C(F)(F)F)c1C"
measure_name = "EC50"
result_number = 676


I. O=C(O)CCc1cc(F)c(OCc2c(-c3ccc(F)cc3F)nsc2C(F)(F)F)c(F)c1
II. CCc1cc(CCC(=O)O)ccc1OCc1c(-c2ccc(Cl)cc2)nsc1C(F)(F)F
III. COc1ccc(-c2nsc(C(F)(F)F)c2COc2ccc(CCC(=O)O)c(C)c2C)cn1
IV. O=C(O)CCc1cc(F)c(OCc2c(-c3ccns3)nsc2C(F)(F)F)c(F)c1
V. CC(Cc1cc(F)c(OCc2c(-c3ccc(F)cc3F)nsc2C(F)(F)F)c(F)c1)C(=O)O (stereo not shown)
# sort list by recorded EC50, greatest to least State the ranking by listing the labels in the requested order. IV, III, V, I, II

====

target: Human GPR120 short form (Homo sapiens, UniProt Q5NUL3); construct: expressed in transfected cells; experiment: Human GPR120 calcium flux assay (FLIPR), Procedure Calcium A; assay type: cell-based; conditions: HEK-293 cells expressing human GPR120 short form, 2500 cells/well; read-out: GPR120 Ca2+ Assay A EC50
Sequence (Q5NUL3 whole entry): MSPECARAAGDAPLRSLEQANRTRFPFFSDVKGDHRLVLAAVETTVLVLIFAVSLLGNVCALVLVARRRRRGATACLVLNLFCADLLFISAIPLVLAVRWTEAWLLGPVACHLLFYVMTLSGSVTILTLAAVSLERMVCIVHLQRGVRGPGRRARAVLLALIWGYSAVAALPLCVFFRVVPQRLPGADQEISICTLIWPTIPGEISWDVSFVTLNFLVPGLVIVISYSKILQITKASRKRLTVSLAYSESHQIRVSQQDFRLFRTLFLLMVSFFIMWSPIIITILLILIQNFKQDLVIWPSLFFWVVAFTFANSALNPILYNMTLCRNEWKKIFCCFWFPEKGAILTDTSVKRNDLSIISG
Measure name: EC50 (nM)

[[record]]
structure_as_smiles = "CCc1cc(CCC(=O)O)c(C(F)(F)F)cc1OCc1c(Cl)nsc1-c1ccccc1C"
result_number = 648

[[record]]
structure_as_smiles = "Cc1c(CCC(=O)O)ccc(OCc2c(Cl)nsc2-c2ccccc2Cl)c1C"
result_number = 83

[[record]]
structure_as_smiles = "Cc1c(CCC(=O)O)ccc(OCc2c(C3CC(F)(F)C3)nsc2C(F)(F)F)c1C"
result_number = 137

[[record]]
structure_as_smiles = "Cc1ccc(-c2nsc(C(F)(F)F)c2COc2ccc(CCC(=O)O)c(C(F)(F)F)c2)c(F)c1"
result_number = 226

[[record]]
structure_as_smiles = "Cc1ccc(-c2snc(C)c2COc2c(F)cc(CCC(=O)O)cc2F)c(F)c1"
result_number = 56

[[record]]
structure_as_smiles = "CCc1ccc(-c2nsc(C(F)(F)F)c2COc2c(F)cc(CCC(=O)O)cc2F)cc1F"
result_number = 362


1. O=C(O)/C=C/c1cc(F)c(OCc2c(-c3ccc(Cl)cc3)nsc2C(F)(F)F)c(F)c1
2. CCc1cc(CCC(=O)O)ccc1OCc1c(-c2ccc(Cl)cc2)nsc1C(F)(F)F
3. CCc1ccc(-c2cc(Cl)sc2COc2c(F)cc(CCCO)cc2F)cc1
Ascending sort, EC50. As an answer, provide the labels arranged in the order called for. 3, 2, 1
(3: 117 nM, 2: 202 nM, 1: 453 nM)

====

Target: Human GPR120 short form (Homo sapiens)
Construct: expressed in transfected cells
Assay: Human GPR120 calcium flux assay (FLIPR), Procedure Calcium A
Assay type: cell-based
Conditions: HEK-293 cells expressing human GPR120 short form, 2500 cells/well; read-out: GPR120 Ca2+ Assay A EC50
Excerpt: This in vitro assay serves to assess test compound agonist activity against the short splice variant (SVS with Accession number NM_001195755.1 confirmed by sequencing data) of the GPR120 receptor. […] Upon stimulation, intracellular released Ca^+2 can bind to the dye and alter its fluorescence intensity. This increase in fluorescence signal, and thus the flux in intracellular [Ca^2+], is detected and quantitated by fluorescence imaging using a FLIPR reader. […]
pEC50: −log10 of the molar value.
Measure name: pEC50

[[record]]
structure_as_smiles = "O=C(O)CCc1cc(F)c(OCc2c(-c3ccc(C(F)(F)F)cc3)nsc2C(F)(F)F)c(F)c1"
measure_name = "pEC50"
result_number = 6.97

[[record]]
structure_as_smiles = "Cc1ccc(-c2snc(C(F)(F)F)c2COc2ccc(CCC(=O)O)c(C(F)(F)F)c2)c(C)c1"
measure_name = "pEC50"
result_number = 5.96

[[record]]
structure_as_smiles = "Cc1cc(CCC(=O)O)c(C(F)(F)F)cc1OCc1c(Cl)nsc1-c1ccccc1C"
measure_name = "pEC50"
result_number = 6.24

[[record]]
structure_as_smiles = "Cc1ccccc1-c1snc(Cl)c1COc1c(F)cc(CCC(=O)O)cc1F"
measure_name = "pEC50"
result_number = 6.46

[[record]]
structure_as_smiles = "CCc1ccc(-c2nsc(C(F)(F)F)c2COc2c(F)cc(CCC(=O)O)c(F)c2F)cc1"
measure_name = "pEC50"
result_number = 6.98

[[record]]
structure_as_smiles = "O=C(O)CCc1ccc(OCc2csnc2-c2ccc(Cl)cc2)c(F)c1F"
measure_name = "pEC50"
result_number = 6.51


1. Cc1c(CCC(=O)O)ccc(OCc2c(Cl)nsc2-c2ccc(C(F)(F)F)cc2)c1C
2. CCc1ccc(-c2cc(C(F)(F)F)sc2COc2c(F)cc(CCC(=O)O)cc2F)cc1
3. CCc1ccc(-c2snc(Cl)c2COc2c(F)cc(CCCO)cc2F)cc1
4. O=C(O)CCc1ccc(OCc2c(-c3ccc(Cl)cc3)nsc2C(F)(F)F)c(Br)c1
5. O=C(O)CCc1cc(F)c(OCc2c(-c3ncc(Cl)cc3F)nsc2C(F)(F)F)c(F)c1
Hey, quick one: sort these by pEC50, largest value first please. # answer = labels listed in requested order 4, 1, 5, 3, 2
(4: 7.51, 1: 7.00, 5: 6.76, 3: 6.52, 2: 6.03)
